molecular target: HCV NS3-4A serine protease (full-length NS3-4A protein) (Hepatitis C virus genotype 1a (isolate 1) (HCV)); assay: HCV NS3-4A protease assay; details: strain HCV-1, fluorogenic peptide substrate, read-out: Protease assay Ex. 12 IC50
Sequence (P26664 1027-1657): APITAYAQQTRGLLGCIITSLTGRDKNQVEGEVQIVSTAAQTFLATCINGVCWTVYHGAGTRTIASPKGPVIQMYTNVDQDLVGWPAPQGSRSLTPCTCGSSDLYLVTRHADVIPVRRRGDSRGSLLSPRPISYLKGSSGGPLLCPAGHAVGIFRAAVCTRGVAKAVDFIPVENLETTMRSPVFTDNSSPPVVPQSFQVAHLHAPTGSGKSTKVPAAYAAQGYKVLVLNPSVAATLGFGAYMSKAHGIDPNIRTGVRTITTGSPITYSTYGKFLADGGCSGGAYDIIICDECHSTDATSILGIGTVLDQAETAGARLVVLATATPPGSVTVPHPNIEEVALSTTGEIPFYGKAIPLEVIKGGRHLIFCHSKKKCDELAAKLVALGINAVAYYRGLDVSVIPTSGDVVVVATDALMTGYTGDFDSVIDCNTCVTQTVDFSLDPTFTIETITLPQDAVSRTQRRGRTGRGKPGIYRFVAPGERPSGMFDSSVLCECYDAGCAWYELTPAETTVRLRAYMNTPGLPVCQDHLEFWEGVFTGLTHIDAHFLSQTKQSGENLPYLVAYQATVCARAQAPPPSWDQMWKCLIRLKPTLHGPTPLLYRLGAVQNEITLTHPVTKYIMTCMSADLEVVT
Sequence (P26664 1658-1711 partner): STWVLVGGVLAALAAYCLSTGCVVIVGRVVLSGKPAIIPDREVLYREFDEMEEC
Documented pIC50 across a set of compounds
Units for pIC50: none; it is -log10 of a concentration expressed in mol/L.

[
  {
    "compound": "C=C[C@@H]1C[C@]1(NC(=O)[C@@H]1C[C@@]2(CN1C(=O)[C@@H](NC(=O)[C@@H](NC(=O)[C@@H](OC)c1ccccc1)C1CCCCC1)C(C)(C)C)C(C)(C)C21CCC1)C(=O)NS(=O)(=O)N1CCCC1 [Compound 193]",
    "pIC50": 7.60
  },
  {
    "compound": "C=C[C@@H]1C[C@]1(NC(=O)[C@@H]1C[C@@]2(CN1C(=O)[C@@H](NC(=O)[C@@H](NC(=O)[C@H]1CCCCN1C(C)C)C1CCCCC1)C(C)(C)C)C(C)(C)C21CCC1)C(=O)NS(=O)(=O)N(CC)C(C)C [Compound 120]",
    "pIC50": 8.00
  },
  {
    "compound": "C=C[C@@H]1C[C@]1(NC(=O)[C@@H]1C[C@@]2(CN1C(=O)[C@@H](NC(=O)[C@@H](NC(=O)[C@@H]1CCN1C(C)C)C(C)(C)C)C(C)(C)C)C(C)(C)C21CCC1)C(=O)NS(=O)(=O)N1CCCC1 [Compound 12]",
    "pIC50": 7.40
  },
  {
    "compound": "C=C[C@@H]1C[C@]1(NC(=O)[C@@H]1C[C@@]2(CN1C(=O)[C@@H](NC(=O)[C@@H](NC(=O)[C@@H]1CCCCN1CC)C1CCCC1)C(C)(C)C)C(C)(C)C21CCC1)C(=O)NS(=O)(=O)N(CC)CC [Compound 81]",
    "pIC50": 8.40
  },
  {
    "compound": "C=C[C@@H]1C[C@]1(NC(=O)[C@@H]1C[C@@]2(CN1C(=O)[C@@H](NC(=O)[C@@H](NC(=O)[C@@H]1CCCCN1C(C)C)C1CCCCC1)C1CCOCC1)C(C)(C)C21CCC1)C(=O)NS(=O)(=O)N1CCCC1 [Compound 41]",
    "pIC50": 9.05
  },
  {
    "compound": "C=C[C@@H]1C[C@]1(NC(=O)[C@@H]1C[C@@]2(CN1C(=O)[C@@H](NC(=O)[C@@H](NC(=O)OC(C)(C)C)C(C)(C)C)C(C)(C)C)C(C)(C)C21CCC1)C(=O)NS(=O)(=O)N1CCCC1 [Compound 2]",
    "pIC50": 6.12
  },
  {
    "compound": "C=C[C@@H]1C[C@]1(NC(=O)[C@@H]1C[C@@]2(CN1C(=O)[C@@H](NC(=O)[C@@H](NC(=O)[C@@H]1CCCCN1C(C)C)C1CCCCC1)C(C)(C)C)C(C)(C)C21CCC1)C(=O)NS(=O)(=O)N1CC[C@H](F)C1 [Compound 46]",
    "pIC50": 8.70
  },
  {
    "compound": "C=C[C@@H]1C[C@]1(NC(=O)[C@@H]1C[C@@]2(CN1C(=O)[C@@H](NC(=O)[C@@H](NC(=O)[C@@H]1CCCCN1C(C)C)C1CCCCC1)C1(C)CCOCC1)C(C)(C)C21CCC1)C(=O)NS(=O)(=O)N1CCCC1 [Compound 124]",
    "pIC50": 8.82
  },
  {
    "compound": "C=C[C@@H]1C[C@]1(NC(=O)[C@@H]1C[C@@]2(CN1C(=O)[C@@H](NC(=O)[C@@H](NC(=O)[C@@H]1CCCCN1C)C1CCCCC1)C(C)(C)C)C(C)(C)C21CCC1)C(=O)NS(=O)(=O)N(CC)CC [Compound 118]",
    "pIC50": 8.35
  },
  {
    "compound": "C=C[C@@H]1C[C@]1(NC(=O)[C@@H]1C[C@@]2(CN1C(=O)[C@@H](NC(=O)[C@@H](NC(=O)[C@@H]1CCCN1C(C)C)C1CCCCC1)C(C)(C)C)C(C)(C)C21CCC1)C(=O)NS(=O)(=O)N(C)CC [Compound 91]",
    "pIC50": 8.30
  }
]

Query: Bench note: what pIC50 did C=C[C@@H]1C[C@]1(NC(=O)[C@@H]1C[C@@]2(CN1C(=O)[C@@H](NC(=O)[C@@H](NC(=O)CC1CCCCO1)C1CCCCC1)C(C)(C)C)C(C)(C)C21CCC1)C(=O)NS(=O)(=O)N1CCCC1 (some centres unmarked) [Compound 179] show?
Reply: 7.60

Query: Then C=C[C@@H]1C[C@]1(NC(=O)[C@@H]1C[C@@]2(CN1C(=O)[C@@H](NC(=O)[C@@H](NC(=O)[C@@H]1CCCCN1CCF)C(C)(C)C)C(C)(C)C)C(C)(C)C21CCC1)C(=O)NS(=O)(=O)N1CCOCC1 [Compound 8] ?
Reply: 6.52

Query: Then C=C[C@@H]1C[C@]1(NC(=O)[C@@H]1C[C@@]2(CN1C(=O)[C@@H](NC(=O)[C@@H](NC(=O)[C@@H]1CCCCN1C(C)C)C1CCCCC1)C(C)(C)C)C(C)(C)C21CCC1)C(=O)NS(=O)(=O)N(CC)CC(F)F [Compound 155] ?
Reply: 8.36

Query: Then C=C[C@@H]1C[C@]1(NC(=O)[C@@H]1C[C@@]2(CN1C(=O)[C@@H](NC(=O)CC1(CC(N)=O)CCCCC1)C(C)(C)C)C(C)(C)C21CCC1)C(=O)NS(=O)(=O)N1CCCC1 [Compound 60] ?
Reply: 5.90

Query: Then C=C[C@@H]1C[C@]1(NC(=O)[C@@H]1C[C@@]2(CN1C(=O)[C@@H](NC(=O)[C@@H](NC(=O)Cc1ccncc1)C1CCCCC1)C(C)(C)C)C(C)(C)C21CCC1)C(=O)NS(=O)(=O)N1CCCC1 [Compound 175] ?
Reply: 8.00

Query: Then C=C[C@@H]1C[C@]1(NC(=O)[C@@H]1C[C@@]2(CN1C(=O)[C@@H](NC(=O)[C@@H](NC(=O)c1cnccn1)C1CCCCC1)C(C)(C)C)C(C)(C)C21CCC1)C(=O)NS(=O)(=O)N(CC)CC [Compound 173] ?
Reply: 8.52

Query: Then C=C[C@@H]1C[C@]1(NC(=O)[C@@H]1C[C@@]2(CN1C(=O)[C@@H](NC(=O)[C@@H](NC(=O)[C@@H]1CCCCN1CC)C1CCCCC1)C1(C)CCOCC1)C(C)(C)C21CCC1)C(=O)NS(=O)(=O)N(CC)CC [Compound 151] ?
Reply: 8.70
